Examples of compounds with documented pIC50 follow.
Test system: Leishmania amazonensis
Test: Leishmanicidal activity against intracellular amastigote stage of Leishmania amazonensis MHOM/Br/79/Maria infected in mouse J774 cells assessed as reduction of parasite load after 48 hrs by resazurin dye-based fluorometric analysis
Assay type: functional, organism-based
Conditions: Leishmania amazonensis, MHOM/Br/79/Maria, J774, 48 h; read-out: IC50
pIC50: −log10 of the molar value.
measured_parameter: pIC50

>>> assay_value("O=S(=O)(Nc1cccc2cnccc12)c1cccc2ccccc12")
4.37
>>> assay_value("Cc1cc2cc(NS(=O)(=O)c3ccccc3)ccc2[nH]1")
4.19
>>> assay_value("O=S(=O)(Nc1ccc2[nH]ncc2c1)c1ccccc1")
4.51
>>> assay_value("CC1CCCN(S(=O)(=O)c2cccc3ccccc23)C1 (stereo unspecified)")
4.74
>>> assay_value("O=S(=O)(Nc1ccc2ncsc2c1)c1ccccc1")
4.11
>>> assay_value("CCCCCCCCCCCCCCCCOP(=O)([O-])OCC[N+](C)(C)C")
4.68

---

Test system: Leishmania amazonensis
Experiment: Leishmanicidal activity against extracellular promastigote stage of Leishmania amazonensis MHOM/Br/79/Maria assessed as reduction of parasite load after 48 hrs by resazurin dye-based fluorometric analysis
Assay type: functional, organism-based
Conditions: Leishmania amazonensis, MHOM/Br/79/Maria, 48 h; read-out: IC50
pIC50: −log10 of the molar value.
measured_parameter: pIC50

>>> assay_value("O=S(=O)(Nc1ccc2[nH]ncc2c1)c1ccc(F)cc1")
3.94
>>> assay_value("O=S(=O)(Nc1ccc2ncsc2c1)c1ccccc1")
4.08
>>> assay_value("Cc1cc2cc(NS(=O)(=O)c3ccc(F)cc3)ccc2[nH]1")
4.90
>>> assay_value("O=[N+]([O-])c1ccc(S(=O)(=O)Nc2nccc3ccccc23)cc1")
4.57
>>> assay_value("O=[N+]([O-])c1ccc(S(=O)(=O)Nc2ccc3ncsc3c2)cc1")
4.05
>>> assay_value("O=S(=O)(Nc1ccc2c[nH]nc2c1)c1ccc(Cl)cc1")
4.23
>>> assay_value("Cc1cc2cc(NS(=O)(=O)c3cccc4ccccc34)ccc2[nH]1")
5.13
>>> assay_value("O=S(=O)(Nc1ccc2cn[nH]c2c1)c1ccc(F)cc1")
3.97
>>> assay_value("O=S(=O)(Nc1ccc2[nH]ncc2c1)c1ccccc1")
4.41
>>> assay_value("CC1CCCN(S(=O)(=O)c2cccc3ccccc23)C1 (configuration not stated)")
4.61
>>> assay_value("Cc1cc2cc(NS(=O)(=O)c3ccccc3)ccc2[nH]1")
4.81
>>> assay_value("Cc1cc2cc(NS(=O)(=O)c3ccc(Cl)cc3)ccc2[nH]1")
4.74

---

Tested on: Leishmania guyanensis
Assay: Leishmanicidal activity against extracellular promastigote stage of Leishmania guyanensis 141/93 assessed as reduction of parasite load after 48 hrs by resazurin dye-based fluorometric analysis
Type: functional, organism-based
Details: Leishmania guyanensis, 141/93, 48 h; read-out: IC50
pIC50: −log10 of the molar value.
measured_parameter: pIC50

>>> assay_value("CC1CCCN(S(=O)(=O)c2ccccc2)C1 (configuration not stated)")
4.27
>>> assay_value("Cc1cc2cc(NS(=O)(=O)c3ccc([N+](=O)[O-])cc3)ccc2[nH]1")
4.71
>>> assay_value("O=S(=O)(Nc1cccc2cnccc12)c1cccc2ccccc12")
4.80
>>> assay_value("O=[N+]([O-])c1ccc(S(=O)(=O)Nc2ccc3ncsc3c2)cc1")
4.27
>>> assay_value("O=S(=O)(Nc1ccc2[nH]ncc2c1)c1ccccc1")
4.32
>>> assay_value("O=[N+]([O-])c1ccc(S(=O)(=O)Nc2ccc3cn[nH]c3c2)cc1")
4.32
>>> assay_value("O=S(=O)(Nc1ccc2cn[nH]c2c1)c1ccc(F)cc1")
4.02
>>> assay_value("O=S(=O)(Nc1nccc2ccccc12)c1ccc(Cl)cc1")
5.37
>>> assay_value("O=S(=O)(Nc1ccc2nccnc2c1)c1ccc(F)cc1")
4.53
>>> assay_value("O=[N+]([O-])c1ccc(S(=O)(=O)Nc2ccc3[nH]ncc3c2)cc1")
3.86
>>> assay_value("O=S(=O)(Nc1ccc2ncsc2c1)c1ccccc1")
4.63
>>> assay_value("Cc1cc2cc(NS(=O)(=O)c3ccc(Cl)cc3)ccc2[nH]1")
4.98
>>> assay_value("CCCCCCCCCCCCCCCCOP(=O)([O-])OCC[N+](C)(C)C")
4.35
>>> assay_value("O=S(=O)(Nc1ccc2[nH]ncc2c1)c1ccc(F)cc1")
3.99
>>> assay_value("O=[N+]([O-])c1ccc(S(=O)(=O)Nc2nccc3ccccc23)cc1")
4.61
>>> assay_value("O=S(=O)(Nc1nccc2ccccc12)c1ccccc1")
4.03
>>> assay_value("O=S(=O)(Nc1ccc2nccnc2c1)c1ccc(Cl)cc1")
4.59
>>> assay_value("O=[N+]([O-])c1ccc(S(=O)(=O)Nc2ncccn2)cc1")
4.33
>>> assay_value("Cc1cc2cc(NS(=O)(=O)c3cccc4ccccc34)ccc2[nH]1")
4.87
>>> assay_value("Cc1cc2cc(NS(=O)(=O)c3ccc(F)cc3)ccc2[nH]1")
3.93
>>> assay_value("O=S(=O)(Nc1cccc2cnccc12)c1ccc(Cl)cc1")
4.65
>>> assay_value("O=S(=O)(Nc1ccc2[nH]ncc2c1)c1cccc2ccccc12")
4.28
>>> assay_value("O=[N+]([O-])c1ccc(S(=O)(=O)Nc2ccc3nccnc3c2)cc1")
3.99
>>> assay_value("O=[N+]([O-])c1ccc(S(=O)(=O)Nc2cnccn2)cc1")
4.07
>>> assay_value("CC1CCCN(S(=O)(=O)c2cccc3ccccc23)C1 (configuration not stated)")
5.14
>>> assay_value("O=S(=O)(Nc1ccc2c[nH]nc2c1)c1ccc(Cl)cc1")
4.34
>>> assay_value("Cc1cc2cc(NS(=O)(=O)c3ccccc3)ccc2[nH]1")
4.68

Values from ChEMBL document CHEMBL3085685
